Cited source: ChEMBL document CHEMBL4819019

- System: Klebsiella pneumoniae
- Measurement Description: Antibacterial activity against clinical isolate Klebsiella pneumoniae 1813 measured after 24 hrs by broth microdilution method
- Type: functional
Reported log10 of MIC values follow for various molecules
Property: log10 of MIC (log10 of the value in µg/mL)

In [3]: df
Out[3]:
                                   molecule    experimental_target  measurement
0  CCCCCCCCCCCCCC(=O)NCC[N+](C)(C)Cc1cnc(C)c2c1COC(C)(CCC)O2.[Cl-] (stereo not given)  Klebsiella pneumoniae         0.90
1  CCCCCCCCCCCC(=O)NCC[N+](C)(C)Cc1cnc(C)c2c1COC(C)(CCC)O2.[Cl-] (stereo not given)  Klebsiella pneumoniae         1.20
2  CCCCCCCCCCCCCC(=O)OCC[N+](C)(C)Cc1cnc(C)c2c1COC(CCC)O2.[Cl-] (stereo not given)  Klebsiella pneumoniae         1.81
3  CCCCCCCCCCCCCC(=O)NCCC[N+](C)(C)Cc1ccccc1.[Cl-]  Klebsiella pneumoniae         1.20
4  CCCCCCCCCCCCCC(=O)NCC[N+](C)(C)Cc1cnc(C)c2c1COC(C)(C)O2.[Cl-]  Klebsiella pneumoniae         0.60
5  CCCCCCCCCCCCCC(=O)NCC[N+](C)(C)Cc1nc(C)c2c(c1CO)COC(C)(C)O2.[Cl-]  Klebsiella pneumoniae         0.30
6  CCCCCCCCCCCCCC(=O)OCC[N+](C)(C)Cc1nc(C)c2c(c1CO)COC(C)(C)O2.[Cl-]  Klebsiella pneumoniae         0.30
7  CCCCCCCCCCCCCC(=O)OCC[N+](C)(C)Cc1cnc(C)c2c1COC(C)(C)O2.[Cl-]  Klebsiella pneumoniae         1.81
